targetEntity: Ephrin type-B receptor 2 (Homo sapiens)
experimentalConditions: at 1 µM
Description: GSK_PKIS: EPHB2 mean inhibition at 1 uM [Nanosyn]
quantityName: inhibition (%)
Only the number, expressed in %, is required.

Example compounds with recorded inhibition:
structureNotation | readingUnit | experimentalValue
Fc1ccc(-c2ncn(C3CCNCC3)c2-c2ccnc(Oc3ccc(F)c(F)c3)n2)cc1 | % | 8.76
c1ccc(Oc2ccc(Nc3ncc(-c4ccccc4)o3)cc2)cc1 | % | 9.65
COc1ccc(-c2ccc3c(NC(=O)C4CC4)n[nH]c3n2)cc1 | % | 5.25
COc1cc(C)c(N(C)C(=O)CN(C)C)cc1Nc1nc(Nc2cccc(F)c2C(N)=O)c2cc[nH]c2n1 | % | 4.5
CN(c1ccc(NC(=O)Nc2c(Cl)cccc2Cl)cc1)c1ccnc(Nc2cccc(CS(C)(=O)=O)c2)n1 | % | 27.3
CCN(CC)Cc1ccc(Nc2nccc(-c3cnn4ncccc34)n2)cc1 | % | 27.2

Lookup: I have this compound here, "COc1cc(Nc2ncc3c(C)nc(-c4cccc(C(F)(F)F)c4)n3n2)cc(OC)c1OC" , and I need its recorded inhibition.
Found: 57.1
